tested-target: AVP-V₂ sites (Rattus norvegicus, UniProt Q00788)
Sequence (Q00788 whole entry): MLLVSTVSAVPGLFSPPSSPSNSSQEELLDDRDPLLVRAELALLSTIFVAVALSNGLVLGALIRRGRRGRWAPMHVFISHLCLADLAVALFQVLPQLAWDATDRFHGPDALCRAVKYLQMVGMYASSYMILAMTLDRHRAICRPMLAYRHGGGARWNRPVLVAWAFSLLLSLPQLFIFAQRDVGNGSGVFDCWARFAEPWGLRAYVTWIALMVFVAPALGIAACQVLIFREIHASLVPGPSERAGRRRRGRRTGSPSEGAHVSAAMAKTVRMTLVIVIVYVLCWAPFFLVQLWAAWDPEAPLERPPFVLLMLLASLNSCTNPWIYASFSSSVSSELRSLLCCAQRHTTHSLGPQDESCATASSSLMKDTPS
pIC50: −log10 of the molar value.
reported-property: pIC50

1. CC1(C)[C@@H]2CC[C@@]1(CS(=O)(=O)N1CCC3(C=Cc4ccccc43)CC1)[C@@](O)(CC(=O)O)C2 [Example 20] ... 4.08

----------
tested-target: uterine OT receptors (Rattus norvegicus)
Sequence (P70536 1-388): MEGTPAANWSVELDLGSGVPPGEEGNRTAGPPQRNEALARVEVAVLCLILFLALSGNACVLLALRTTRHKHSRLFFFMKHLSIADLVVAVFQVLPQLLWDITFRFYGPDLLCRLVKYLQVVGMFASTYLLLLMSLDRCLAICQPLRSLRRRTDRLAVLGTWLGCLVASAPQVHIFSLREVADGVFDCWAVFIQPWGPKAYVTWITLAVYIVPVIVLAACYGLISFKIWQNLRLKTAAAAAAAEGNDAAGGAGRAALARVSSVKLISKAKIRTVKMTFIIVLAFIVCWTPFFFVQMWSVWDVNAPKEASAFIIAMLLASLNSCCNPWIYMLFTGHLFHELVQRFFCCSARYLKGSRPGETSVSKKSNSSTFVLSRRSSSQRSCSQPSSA
reported-property: IC50

1) CC1(C)[C@@H]2CC[C@@]1(CS(=O)(=O)N1CCC3(C=Cc4ccccc43)CC1)C(O)(c1ccccc1)C2 (stereo partly shown) [Example 11] ... 490 nM
2) CCC1(O)CC2CC[C@]1(CS(=O)(=O)N1CCC3(C=Cc4ccccc43)CC1)C2(C)C (stereo partly shown) [Example 15] ... 470 nM
3) CC1(C)[C@@H]2CC[C@@]1(CS(=O)(=O)N1CCC3(C=Cc4ccccc43)CC1)[C@@](O)(CC(=O)O)C2 [Example 20] ... 570 nM
4) CC1(C)[C@@H]2CC[C@@]1(CS(=O)(=O)N1CCC3(C=Cc4ccccc43)CC1)C(=NO)C2 [Example 27] ... 490 nM

----------
Known inhibition at 10 µM of a selection of molecules
tested-target: AVP-V₂ sites (Rattus norvegicus, UniProt Q00788)
Construct: male rat liver (AVP-V₁ sites) or kidney medulla (AVP-V₂ sites); from tissue; host or cells: male rat kidney medulla, crude membrane preparation
protocol-notes: [³H]AVP radioligand binding, crude membrane preparation of male rat kidney medulla (AVP-V₂ sites)
assay-conditions: 10 µM test compound; % of specific [³H]AVP binding inhibited (kidney); read-out: Inhibition Vasopressin V2 % inhibition @ 10
reported-property: inhibition at 10 µM (%)

1) CC1(C)[C@@H]2CC[C@@]1(CS(=O)(=O)N1CCC3(C=Cc4ccccc43)CC1)C(=NO)C2 ... 21
2) COC(=O)C[C@@]1(O)C[C@H]2CC[C@]1(CS(=O)(=O)N1CCC3(C=Cc4ccccc43)CC1)C2(C)C ... 20
3) CC1(C)[C@@H]2CC[C@@]1(CS(=O)(=O)N1CCC3(C=Cc4ccccc43)CC1)C(=O)C2 ... 3
4) CC1(C)[C@@H]2CC[C@@]1(CS(=O)(=O)N1CCC3(C=Cc4ccccc43)CC1)[C@](C)(O)C2 ... 5
5) CC1(C)[C@H]2CC[C@]1(CS(=O)(=O)N1CCC3(C=Cc4ccccc43)CC1)C(=O)C2 ... 6

----------
tested-target: AVP-V₁ sites (Rattus norvegicus, UniProt P30560)
Construct: a crude membrane preparation of male rat liver (AVP-V₁ sites); from tissue; host or cells: male rat liver, crude membrane preparation
Sequence (P30560 whole entry): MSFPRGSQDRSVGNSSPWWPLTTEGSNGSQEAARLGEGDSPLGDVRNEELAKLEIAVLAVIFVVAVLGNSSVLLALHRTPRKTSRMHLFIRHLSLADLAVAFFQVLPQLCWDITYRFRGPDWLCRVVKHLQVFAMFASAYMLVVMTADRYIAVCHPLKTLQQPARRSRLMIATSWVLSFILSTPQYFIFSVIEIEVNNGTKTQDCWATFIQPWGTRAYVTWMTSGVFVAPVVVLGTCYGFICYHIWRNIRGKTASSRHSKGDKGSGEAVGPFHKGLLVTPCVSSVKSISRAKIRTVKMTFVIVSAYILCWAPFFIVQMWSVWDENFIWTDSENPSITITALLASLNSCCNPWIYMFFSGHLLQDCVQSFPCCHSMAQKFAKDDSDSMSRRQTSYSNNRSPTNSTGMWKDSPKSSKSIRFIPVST
protocol-notes: [³H]AVP radioligand binding, crude membrane preparation of male rat liver (AVP-V₁ sites)
assay-conditions: 10 µM test compound; % of specific [³H]AVP binding inhibited (liver); read-out: Inhibition Vasopressin V1 % inhibition @ 10
Quick list: inhibition at 10 µM per entry.
reported-property: inhibition at 10 µM (%)

1) CC1(C)[C@@H]2CC[C@@]1(CS(=O)(=O)N1CCC3(C=Cc4ccccc43)CC1)C(=O)C2 ... 2
2) COC(=O)C[C@@]1(O)C[C@H]2CC[C@]1(CS(=O)(=O)N1CCC3(C=Cc4ccccc43)CC1)C2(C)C ... 54
3) CC1(C)[C@@H]2CC[C@@]1(CS(=O)(=O)N1CCC3(C=Cc4ccccc43)CC1)[C@](C)(O)C2 ... 45
4) CC1(C)[C@H]2CC[C@]1(CS(=O)(=O)N1CCC3(C=Cc4ccccc43)CC1)C(=O)C2 ... 0
5) CC1(C)[C@@H]2CC[C@@]1(CS(=O)(=O)N1CCC3(C=Cc4ccccc43)CC1)C(=NO)C2 ... 52

----------
tested-target: AVP-V₁ sites (Rattus norvegicus, UniProt P30560)
Construct: a crude membrane preparation of male rat liver (AVP-V₁ sites); from tissue; host or cells: male rat liver, crude membrane preparation
protocol-notes: [³H]AVP radioligand binding, crude membrane preparation of male rat liver (AVP-V₁ sites)
assay-conditions: 1 nM [³H]AVP, rat liver membranes, 30 min at 30°C; read-out: Inhibition Vasopressin V1 IC50
Recorded IC50 for the following compounds
reported-property: IC50

1) CCC1(O)CC2CC[C@]1(CS(=O)(=O)N1CCC3(C=Cc4ccccc43)CC1)C2(C)C (some centres unmarked) ... ~9 µM
2) CC1(C)[C@@H]2CC[C@@]1(CS(=O)(=O)N1CCC3(C=Cc4ccccc43)CC1)[C@@](O)(CC(=O)O)C2 ... 89 µM
